System: MiaPaca2 (Pancreatic cancer)
Test: Toxicity assay with or without rotenone
Assay type: cell-based
Conditions: Homo sapiens, MIA PaCa-2; MiaPaca2, with 25 nM rotenone, 72 hours; read-out: EC50 (nM) with Rotenone
Method: Toxicity assay: Cells were growing in 96 well plates in DMEM F12 with 17 mM glucose, 0.5 mM Sodium Pyruvate, 1 mM Glutamine and 3% FBS. The cells were treated with the indicated compounds (10 different concentrations) with or without 25 nM rotenone. Viability was determined after 72 hours of treatment using CellTiter Glo reagent (Promega). EC50 was calculated using Prism software.
ASSAY_ENDPOINT: EC50 (nM)
Please state the figure in nM; there is no need to write the unit.

Ask: Value lookup for EC50; key = CC(=O)Nc1ccc(CCNc2ncnc3c2sc2nc4c(cc23)COC(C)(C)C4)cc1
Result: 61

###

Listed below: EC50 values for each entry.
Test system: SDH-KO-HRAS cells (SDHB-deficient)
Assay: Cellular / differential toxicity assay (CellTiter-Glo, 3 days)
Assay type: cell-based, murine
Conditions: Mus musculus, 72 h, toxicity, SDH-KO cells, 3 days, CellTiter-Glo; read-out: EC50 (uM) SDH-KO-HTAS-C17
Protocol: Identification of compounds that target specifically SDH-deficient cells was done by screening a library of small-molecule by using a differential toxicity screen with SDHB-proficient vs. SDHB-deficient cells (the […] cells were described in Cardaci 2015). […] Incubate for 3 days at 37° C. in 5% CO2 tissue culture incubator. • Day 4: Check viability of cells by adding CTG reagent and read luminescence in plate reader […]

COMPOUND	MEASURED_TARGET	EC50
CC1(C)Cc2nc3sc4c(NCCc5ccc(NS(C)(=O)=O)cc5)ncnc4c3cc2CO1 [Compound 152]	SDH-KO-HRAS cells (SDHB-deficient)	3 to 10 µM
COc1ccc(CCOc2ncnc3c2sc2nc4c(cc23)COC(C)(C)C4)cc1F [Compound 153]	SDH-KO-HRAS cells (SDHB-deficient)	> 10 µM
CCC(CO)Nc1ncnc2c1sc1nc3c(cc12)COC(C)(C)C3 (centres unmarked) [Compound 291]	SDH-KO-HRAS cells (SDHB-deficient)	> 10 µM
CC1(C)Cc2nc3sc4c(NCCc5ccc6[nH]cnc6c5)ncnc4c3c(CO)c2CO1 [Compound 306]	SDH-KO-HRAS cells (SDHB-deficient)	> 10 µM
CC1(C)Cc2nc3sc4c(NCCc5ccc(C(N)=O)cc5)ncnc4c3cc2CO1 [Compound 144]	SDH-KO-HRAS cells (SDHB-deficient)	< 1 µM

Ask: Value lookup for EC50; key = CCOC(=O)C1CCc2nc3sc4c(NCCc5ccc(OC)c(F)c5)ncnc4c3cc2C1 (centres unmarked) [Compound 302]
Result: > 10 µM

Ask: Value lookup for EC50; key = COc1ccc(CCNc2ncnc3c2sc2nc4c(cc23)CCC4)cc1F [Compound 108]
Result: > 10 µM

Ask: Value lookup for EC50; key = CC1(C)Cc2nc3sc4c(NCCc5ccc6ocnc6c5)ncnc4c3cc2CO1 [Compound 175]
Result: 1 to 3 µM

Ask: Value lookup for EC50; key = CC1(C)Cc2nc3sc4c(NCCc5ccc6[nH]c(=O)[nH]c6c5)ncnc4c3cc2CO1 [Compound 196]
Result: < 1 µM

###

tested on: HCT116 (Colon cancer); experiment: Toxicity assay with or without rotenone; assay type: cell-based; conditions: Homo sapiens, HCT-116; HCT116, without rotenone, 72 hours; read-out: EC50
ASSAY_ENDPOINT: EC50
I'd appreciate it if you included the unit after the number.

Ask: Value lookup for EC50; key = CC(=O)Nc1ccc(CCNc2ncnc3c2sc2nc4c(cc23)COC(C)(C)C4)cc1 [Compound 111]
Result: 9.7 µM
